Catalogue of compounds with associated cell viability
- Test system: NOMO1
- experimental.protocol: cell viability relative to DMSO control; higher = less cytotoxic
- condition.parameters: HPLM + 10% dialyzed FBS; 48 h; 0.00702 µM
attribute.measured: cell viability (%)

{"compound": "N[S+](=O)([O-])c1cccc2c1C(=O)c1cccc(O)c1C2=O", "assay.result": 112}
{"compound": "C[C@]12CC[C@H]3[C@@H](CCC/4=C/C(=O)CC[C@]34C)[C@@H]1CC[C@@H]2O", "assay.result": 126}
{"compound": "Cc1cc(Nc2nc(N[C@@H](C)c3ccc(F)cc3)c(C#N)cc2F)n[nH]1", "assay.result": 109}
{"compound": "COc1ccc2[nH]c([S+]([O-])Cc3ncc(C)c(OC)c3C)nc2c1 (centres undefined)", "assay.result": 90.9}
{"compound": "COc1ccc2c(c1)c(CC(=O)OCC(=O)O)c(C)n2C(=O)c1ccc(Cl)cc1", "assay.result": 122}
{"compound": "COc1ccc([C@@H]2CC(=O)c3c(O)cc(O[C@@H]4O[C@H](CO[C@@H]5O[C@@H](C)[C@H](O)[C@@H](O)[C@H]5O)[C@@H](O)[C@H](O)[C@H]4O)cc3O2)cc1O", "assay.result": 121}
{"compound": "Nc1ncnc2ccccc12", "assay.result": 100}
{"compound": "CC1(C)CNc2cc(NC(=O)c3cccnc3NCc3ccncc3)ccc21", "assay.result": 112}
{"compound": "O=C(O)CCn1c2c(c3ccccc31)C[C@H](N[S+](=O)([O-])c1ccc(F)cc1)CC2", "assay.result": 120}
{"compound": "CC/1=C(/C(CC(=O)N1)C2=CC=C(C=C2)C(F)(F)F)C(=O)NC3=C(F)C=C4[NH]N=CC4=C3 (centres undefined)", "assay.result": 103}
{"compound": "CN(C)c1nc(Cc2ccc(NC(=O)c3ccc4ccccc4c3)cc2)nc(Cl)c1CC(=O)O", "assay.result": 112}
{"compound": "CC[C@@]1(O)C(=O)OC\\C2=C1\\C=C\\3N(CC4=C3N=C5C=CC=CC5=C4)C2=O", "assay.result": 145}
{"compound": "COc1cc2c(Nc3ccc(Br)cc3F)ncnc2cc1OCC1CCN(C)CC1", "assay.result": 88.9}
{"compound": "C=CC(=O)Nc1cccc(Nc2nc(NC3CCC(N(C)C)CC3)nc3c2ncn3C(C)C)c1 (centres undefined)", "assay.result": 114}
{"compound": "CCC\\C1=C\\C(=O)NC(=S)N1", "assay.result": 112}
{"compound": "O=C1Nc2ccc(I)cc2/C1=C/c1cc(Br)c(O)c(Br)c1", "assay.result": 109}
{"compound": "ClC1=CC\\2=C(OC3=C(C=CC=C3)\\N=C2N4CCNCC4)C=C1", "assay.result": 106}
{"compound": "CCN(C(=O)C/1=C(O)/C2=C(C=CC=C2Cl)N(C)C1=O)C3=CC=CC=C3", "assay.result": 97.6}
{"compound": "Cn1cc(/C=C2\\C(=O)Nc3cccnc32)c2ccccc21", "assay.result": 122}

Taken from the supplement of paper PMC11451515.
